- measuredTarget: T1, CRBN, Q96SW2;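 further: pooled lentiviral library of zinc finger degron-EGFP fusions in mCherry-positive Jurkat cells, FACS-sorted after compound exposure, with degron abundance counted by next-generation sequencing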
- T1 chain: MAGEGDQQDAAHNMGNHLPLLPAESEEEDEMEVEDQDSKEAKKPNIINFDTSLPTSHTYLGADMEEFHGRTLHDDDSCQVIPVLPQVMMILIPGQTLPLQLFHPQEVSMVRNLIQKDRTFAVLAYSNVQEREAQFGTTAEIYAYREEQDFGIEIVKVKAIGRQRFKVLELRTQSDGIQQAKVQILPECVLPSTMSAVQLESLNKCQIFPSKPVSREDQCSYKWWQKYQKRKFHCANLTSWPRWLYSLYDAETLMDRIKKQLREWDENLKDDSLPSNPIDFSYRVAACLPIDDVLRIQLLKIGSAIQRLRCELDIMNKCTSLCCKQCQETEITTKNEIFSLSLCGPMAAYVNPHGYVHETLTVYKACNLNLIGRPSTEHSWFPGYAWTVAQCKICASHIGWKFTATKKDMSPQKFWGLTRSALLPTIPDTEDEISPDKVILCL
- protocol: log2 fold change of degron read counts, EGFP-low vs EGFP+ sorted cells (limma voom), compound-induced degradation; higher = more compound-induced degradation of the degron-EGFP fusion; degrons are variants of IKZF1/3 zinc finger 2; compound dose not given here
- statedConditions: Jurkat; 18 h; compound: compound 22 (5-morpholino-thalidomide)
The full ranking holds about 8,300 sequences; the median of “log2 fold change of degron read counts, EGFP-low vs EGFP+ sorted cells (limma voom), compound-induced degradation” is about -1.1, and the highest 2% start at about 3.2. Only a selection was taken, and the highest values are over-represented in it overall.
measurementName: log2 fold change of degron read counts

{"primarySequence": "FMCEICGHQFTQKGNLLRHIKL [46F_47M_49E_50I_52G_53H_54Q_55F_67L_, Q9UKT9]", "log2 fold change of degron read counts": -3.29}

Q. Tell me the measured log2 fold change of degron read counts of FLCSVCGHVFTQKGNLLRHIKL [46F_47L_49S_50V_52G_53H_54V_55F_67L_, Q9UKT9] , please.
A. -2.11

Q. Tell me the measured log2 fold change of degron read counts of FYCPICGANFTQKGNLLRHIKL [46F_47Y_49P_50I_52G_53A_54N_55F_67L_, Q9UKT9] , please.
A. 3.46
